Protocol: chemical genetic growth profiling, strain panel (AID 1159580);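 also: tested at 20 µM; growth read once vehicle control cultures reached saturation at 30 °C; 1 = growth at the plate median or of vehicle wells; lower values mean less growth of the strain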
Assay conditions: S. cerevisiae deletion strains, growth OD, locus YNL307C, strain MCK1, active compounds read low
Hit rate of the full screen: of about 5,500 compounds, about 2,000 (36%) were called active. Inconclusive results (about 18%) are left out. This is one part of the list.
Returns: string. Value is criterion met if measured normalized growth is below 0.9, and criterion not met if it is greater than or equal to it.

Hi there! Is normalized growth for CCC(=O)OCC(=O)[C@@]1(OC(=O)CC)[C@@H](C)CC2C3CCC4=CC(=O)C=C[C@]4(C)C3(F)[C@@H](O)C[C@@]21C (stereo not given in full) below 0.9, do you know?
criterion met

Hi there! Is normalized growth for `COc1cccc2c1CCC1=CC(=O)CC[C@@]12C` below 0.9, do you know?
criterion not met

Hi there! Is normalized growth for CC(=O)N1CCCC1C(=O)O (stereo not given) below 0.9, do you know?
criterion not met

Hi there! Is normalized growth for Oc1ccc2c3c1OC1[C@@H](O)CC[C@@]4(O)[C@@H](C2)N(CC2CCC2)CC[C@]314 (stereo not given in full) below 0.9, do you know?
criterion not met

Hi there! Is normalized growth for `CC1=CC(=O)C(C(C)C)=CC1=O` below 0.9, do you know?
criterion met

====

Protocol: chemical genetic growth profiling, strain panel (AID 1159580);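 also: tested at 20 µM; growth read once vehicle control cultures reached saturation at 30 °C; 1 = growth at the plate median or of vehicle wells; lower values mean less growth of the strain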
Assay conditions: S. cerevisiae deletion strains, growth OD, locus YIL073C, strain SPO22, active compounds read low
About 2,000 (36%) of roughly 5,500 compounds were called active. Not shown: some 18% with an inconclusive outcome. This is one part of the list.
Field: normalized growth. Provide a value for each of the compounds that follow.
Just the number, please.

Name the recorded normalized growth of the compound listed here: `CN(C)C(=O)C(CCN1CCC(O)(c2ccc(Cl)cc2)CC1)(c1ccccc1)c1ccccc1`
1.05

Name the recorded normalized growth of the compound listed here: C[C@H]1[C@H](C)CC[C@]2(C(=O)O)CC[C@]3(C)C(=CCC4[C@@]5(C)C[C@@H](O)[C@H](O)[C@@](C)(CO)C5[C@H](O)C[C@]43C)[C@H]12 (some centres undefined)
1.02

Name the recorded normalized growth of the compound listed here: `O=C(CCCN1CCC2(CC1)C(=O)NCN2c1ccccc1)c1ccc(F)cc1`
1.07

Name the recorded normalized growth of the compound listed here: C[C@@H](CO)NC(=O)C1C=C2c3cccc4[nH]cc(c34)C[C@H]2N(C)C1 (some centres undefined)
0.949

====

Field: normalized growth. Provide a value for each of the molecules that follow.
Protocol: chemical genetic growth profiling, strain panel (AID 1159580);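 also: tested at 20 µM; growth read once vehicle control cultures reached saturation at 30 °C; 1 = growth at the plate median or of vehicle wells; lower values mean less growth of the strain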
Assay conditions: S. cerevisiae deletion strains, growth OD, locus YJL095W, strain BCK1, active compounds read low
Among all 5,500 compounds or so, about 2,000 (36%) were called active. About 18% were inconclusive and are not listed. Some of the results follow.
Just the number, please.

Name the recorded normalized growth of the molecule listed here: `CC(C)(C)NC(=S)N/N=C\c1cc(Br)c(O)c(Br)c1`
0.875

Name the recorded normalized growth of the molecule listed here: CCOC(=O)CC(SP(=S)(OC)OC)C(=O)OCC (stereo unspecified)
1.02

Name the recorded normalized growth of the molecule listed here: `O=C(O/N=C1/CCCc2[nH]c3ccccc3c21)C1CCCCC1`
0.942

Name the recorded normalized growth of the molecule listed here: `O=C(O/N=C1/CCCc2[nH]c3ccccc3c21)c1ccc(Cl)cc1Cl`
0.935

Name the recorded normalized growth of the molecule listed here: `CN(C)CC[C@H](c1ccc(Cl)cc1)c1ccccn1`
1

Name the recorded normalized growth of the molecule listed here: CC1(C)C(=O)CC[C@@]2(C)C1C[C@@H](O)[C@@]1(C)C3=CC(=O)O[C@@H](c4ccoc4)[C@]3(C)CCC21 (stereo partly specified)
1.04

Name the recorded normalized growth of the molecule listed here: `COc1ccc(Br)c(C(=O)/C(C#N)=C/c2cccs2)c1`
0.146

Name the recorded normalized growth of the molecule listed here: `O=S(=O)(O)O`
1.06

Name the recorded normalized growth of the molecule listed here: `COC(=O)N/N=C\c1c[n+]([O-])c2ccccc2[n+]1[O-]`
1.05

Name the recorded normalized growth of the molecule listed here: OC(COCc1ccccc1)Cn1c2ccccc2c2ccccc21 (stereo unspecified)
0.866

Name the recorded normalized growth of the molecule listed here: `NCCCC(O)(P(=O)(O)O)P(=O)(O)O`
1
